# SYSTEM: human PAH with the R408W mutation (Homo sapiens, UniProt P00439, R408W)
# Construct: expressed in transfected cells
# Sequence (P00439 1-452 R408W): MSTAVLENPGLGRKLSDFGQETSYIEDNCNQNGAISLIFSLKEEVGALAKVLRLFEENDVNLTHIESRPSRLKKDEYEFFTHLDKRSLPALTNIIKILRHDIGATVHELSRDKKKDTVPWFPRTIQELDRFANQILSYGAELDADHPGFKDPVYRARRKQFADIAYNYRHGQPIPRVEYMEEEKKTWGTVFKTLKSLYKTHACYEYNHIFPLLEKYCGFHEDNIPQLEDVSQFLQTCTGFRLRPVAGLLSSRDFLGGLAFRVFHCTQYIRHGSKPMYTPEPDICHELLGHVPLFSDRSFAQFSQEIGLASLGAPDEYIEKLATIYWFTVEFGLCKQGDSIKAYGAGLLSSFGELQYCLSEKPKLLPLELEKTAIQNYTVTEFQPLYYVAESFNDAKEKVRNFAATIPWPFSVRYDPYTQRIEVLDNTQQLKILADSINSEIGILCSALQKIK
# ASSAY COMMENT: Cell Based Phenylalanine Flux Assay;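 also: after compound treatment, cells received sepiapterin plus isotope-labelled Phenylalanine for 4 hours, then labelled Tyrosine in the medium was quantified, 10-point 2-fold dilution series run in duplicate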
# MEASUREMENT CONDITIONS: A375 cells expressing human R408W PAH; 24 hrs compound incubation; 13C-Tyrosine by LC-MS; average where tested multiple times; read-out: AC50
Each entry below carries its recorded AC50.

| ITEM SMILES | SYSTEM | AC50 |
| --- | --- | --- |
| CC1(c2nnc(C(=O)N3CCc4[nH]cnc4[C@H]3c3cc4c(Cl)cccn4n3)o2)CC1 | human PAH with the R408W mutation (Homo sapiens, UniProt P00439, R408W) | < 500 nM |
| CC(C)(O)c1nc(C(F)F)c(C(=O)N2CCc3[nH]cnc3[C@@H]2c2cc3cccc(F)n3n2)o1 | human PAH with the R408W mutation (Homo sapiens, UniProt P00439, R408W) | 1000 to 5000 nM |
| Cn1cc(-c2nnc(C(=O)N3CCc4[nH]cnc4[C@H]3c3cc4c(C(F)F)cccn4n3)o2)cn1 | human PAH with the R408W mutation (Homo sapiens, UniProt P00439, R408W) | < 500 nM |
| Cc1cnn(C)c1-c1nnc(C(=O)N2CCc3[nH]cnc3[C@H]2c2cc3cccc(C(F)F)n3n2)o1 | human PAH with the R408W mutation (Homo sapiens, UniProt P00439, R408W) | 500 to 1000 nM |

Query block: I have this compound here, `Cc1ncccc1-c1nnc(C(=O)N2CCc3[nH]cnc3[C@@H]2c2cc3cccc(C(F)(F)F)n3n2)o1` , and I need its recorded AC50.
Result block: 1000 to 5000 nM

Query block: // same read-out, input: `O=C(c1ccnn1C(F)(F)F)N1CCc2[nH]cnc2[C@H]1c1cc2c(F)cccn2n1`
Result block: < 500 nM

Query block: // same read-out, input: `O=C(c1nnc(-c2ccncc2)o1)N1CCc2[nH]cnc2[C@H]1c1cc2c(F)cccn2n1`
Result block: < 500 nM

Query block: // same read-out, input: `O=C(c1nnc(-c2ccn(C(F)(F)F)n2)o1)N1CCc2[nH]cnc2[C@@H]1c1cc2c(Cl)cccn2n1`
Result block: 1000 to 5000 nM

Query block: // same read-out, input: `Cc1c(-c2nnc(C(=O)N3CCc4[nH]cnc4[C@@H]3c3cc4cccc(Cl)n4n3)o2)cnn1C`
Result block: > 5000 nM

Query block: // same read-out, input: `O=C(c1nnc(-c2ccc(C(F)(F)F)cc2)o1)N1CCc2[nH]cnc2[C@H]1c1cc2ccccn2n1`
Result block: 500 to 1000 nM
